# System Tested: T1, P6SC1
# T1 chain: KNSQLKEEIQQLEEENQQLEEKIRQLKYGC
# Protocol: two-hybrid library CC1;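 further: natural log of median RNA to DNA barcode read ratio; higher means stronger binding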
# Condition Details: mean of both orientations
Measure: interaction score
Respond using a number only.

Below, 5 binders whose answers are already recorded.
SPEDKNAALKEEIQALEEENQALEEKIAQLKYG [P6]	-2.74
KNAQLKEENAALEEKIQQLKEKIQALKYG [P10]	-2.61
KNAQLKEKIAALKEKIQQLKEENQALEYG [P12]	-2.44
ENSQLEEKISQLKQKNSQLKEEIQQLEYG [P5mS]	0.104
SPEDEIQQLEEEIAQLEQKNAALKEKNQALKYG [P3]	-2.57

Inquiry: Query (binder): EIQQLEEEISQLEQKNSQLKEKNQQLKYG [P3mS] ; field requested: interaction score
Reply text: -2.8

Inquiry: Query (binder): KISQLKQKIQQLKQENQQLEEENSQLEYG [P4mS] ; field requested: interaction score
Reply text: -2.65

Ref: paper PMC10397247
